- System: HCC-2998 colon
- protocol description: NCI tumour cell line growth inhibition, 48 h
measured attribute: GI50

Value sought: GI50, system HCC-2998 colon, item CCN1CCN(Cc2ccc(NC(=O)Nc3nc4ccc(Oc5ccnc(C(=O)NC)c5)cc4s3)cc2C(F)(F)F)CC1 . Result: 2.05 µM

Fill in: HCC-2998 colon GI50 for O=C(/C=C/c1ccc(O)c(O)c1)NCc1c[nH]c2ccccc12 = 35.7 µM

HCC-2998 colon assay, molecule N#C/C(=C\c1ccc([N+](=O)[O-])s1)c1nc2cc(Cl)ccc2s1 , recorded GI50 = 2.31 µM

# lookup: COC(=O)c1cc2c(cc1Cl)SC1=NN(C)S(=O)N1S2(=O)=O (stereo not given) on HCC-2998 colon, GI50 = > 100 µM

Reported GI50 (HCC-2998 colon) for entry C#CCNC(=S)N/N=C(\C)c1ccccn1 is 1.24 µM

Test item COc1cc2ncnc(-n3ncc4cc(NC(=O)Nc5ccc(Cl)c(Cl)c5)ccc43)c2cc1OC ; HCC-2998 colon; reported GI50 was 2.61 µM

Tested on HCC-2998 colon: Cc1ncc(C(=O)Nc2ccc(CN3CCN(C)CC3)c(C(F)(F)F)c2)cc1C#Cc1ccc(N)nc1 . Observed GI50: 0.998 µM

Hey, HCC-2998 colon data for Cc1cc(C)c2c(n1)sc1c(N)ncnc12 : GI50 came out at > 25 µM

Form field GI50 for item NC(=O)[C@@H](CC1CC1)[C@@H](CCC(F)(F)F)C(=O)N[C@H]1N=C(c2ccccc2)c2cccc(F)c2NC1=O on HCC-2998 colon: > 100 µM

Measured GI50 for this entry Cc1cc(Nc2nc(C(=O)Nc3ccccc3)nc3ccccc23)n[nH]1 on HCC-2998 colon: 17.7 µM

Sample c1cc(-c2nnc(SSc3ncnc4nc[nH]c34)o2)ccn1 , system: HCC-2998 colon. Its GI50 is 3.38 µM

Entry COc1ccc(NC(=O)/C=C(C)/C=C/C=C(C)/C=C/C2=C(C)CCCC2(C)C)cc1 ; assay system HCC-2998 colon; GI50 recorded at 17.7 µM

Summary line: CCn1c(-c2cc3c([nH]c4ccccc43)c(-c3cccc(O)c3)n2)n[nH]c1=S , HCC-2998 colon, reported GI50 = 4.77 µM

Item COc1ccc(C(=O)c2cc3c(N)c(C(=O)Nc4ccccc4)sc3nc2C)cc1 was tested on HCC-2998 colon; the reported GI50 is 1.96 µM

Noted GI50 for CCCCCCCC(=O)OCCCC1[C@]2(C)CC[C@@]3(C)C([C@H](C)CCC=C(C)C)CC[C@]3(C)C2CC[C@]12OC2(C)C (stereo not given in full) , tested on HCC-2998 colon: 18.6 µM
